Would you kindly list Binding affinity (RU) for each of these binders?
- TARGET: acetylcholine receptor
- TEST: SPR, AchR on chip, peptide 10 uM
Give your result in RU as a bare value.

Which Binding affinity (RU) value is on record for KRQQK [5mer-225] ?
51

Requested read-out: Binding affinity (RU). Entry: KRLYR [5mer-239]
61

Which measured Binding affinity (RU) value corresponds to KQQYK [5mer-212] ?
64

Entry under review: RVQTR [5mer-319] . Reported Binding affinity (RU)?
74

Need Binding affinity (RU) of RLVYR [5mer-522] , thanks.
78

# query: Binding affinity (RU) of entry KQVTK [5mer-547]
77

Which Binding affinity (RU) value belongs to KQICK [5mer-532] ?
75

# lookup: Binding affinity (RU) of KSFSR [5mer-343]
60

Using the record for RRICR [5mer-524] , report its Binding affinity (RU).
83

I would be grateful if you could share the reported Binding affinity (RU) for KSQRR [5mer-324] .
58

Can you look up the measured Binding affinity (RU) of KWVQK [5mer-507] for me?
84

What value of Binding affinity (RU) has been recorded for this entry: RGVQR [5mer-9]
77

Requested field: Binding affinity (RU). Item: RLRCR [5mer-308]
84

Entry RRISR [5mer-502] has what Binding affinity (RU)?
84

State the recorded Binding affinity (RU) for this entry: RVYYK [5mer-233]
84

Recorded Binding affinity (RU) of RGLRK [5mer-237] , please.
77

Binding affinity (RU) lookup needed for RQRSR [5mer-8] , thanks.
51

Please look up its Binding affinity (RU): KRFQR [5mer-19]
72

Consider the binder KWLYK [5mer-23] and give its measured Binding affinity (RU).
86

I have this binder here, RRYTR [5mer-226] , and I need its recorded Binding affinity (RU).
60
